Below, each entry is listed with its recorded cell viability.
Tested on: P12-Ichikawa
ASSAY_EXPLANATION: cell viability relative to DMSO control; higher = less cytotoxic
TEST_CONTEXT: RPMI 5 mM glucose + 10% dialyzed FBS; 48 h; 1.71 µM
Returns: string containing the numeric result and its unit.

Before answering, review these 3 worked examples.
# COMPOUND, cell viability
rows = [
    ("CC(=O)Nc1ccc(OC[C@](C)(O)C(=O)Nc2ccc([N+](=O)[O-])c(C(F)(F)F)c2)cc1", "83.4%"),
    ("COC1=CC2=NC=CC(=C2C=C1)OC3=CN=C(NC(=O)C/4=C(C)/N(CC(C)(C)O)N(C4=O)C5=CC=CC=C5)C=C3", "91.4%"),
    ("CC1(C)CCC[C@]2(C)[C@H]3CC(=O)O[C@]3(C)CC[C@@H]12", "107%"),
]

# next compound below
Which cell viability is reported for this compound? CC1(C)CC(=O)c2c(C(F)(F)F)nn(-c3ccc(C(N)=O)c(NC4CCC(O)CC4)c3)c2C1 (centres undefined)
30.4%

* * *

Listing of recorded cell viability by entry.
Tested on: P12-Ichikawa
ASSAY_EXPLANATION: cell viability relative to DMSO control; higher = less cytotoxic
TEST_CONTEXT: HPLM + 10% dialyzed FBS; 48 h; 0.000781 µM
Report the value in % with no unit label.

Past entries and their recorded results:
# COMPOUND, cell viability (%)
records = [
    ("CC(C)(C)c1cc(NC(=O)Nc2ccc(-c3cn4c(n3)sc3cc(OCCN5CCOCC5)ccc34)cc2)no1", 88.7),
    ("CCCCCOC(=O)NC\\1=N\\C(=O)N(\\C=C1F)[C@@H]2O[C@H](C)[C@@H](O)[C@H]2O", 107),
    ("CN(C)CCOc1cc(-c2cn[nH]c2)ccc1NC(=O)C1COc2ccccc2O1 (configuration not stated)", 105),
    ("COc1cc2c(cc1-c1c(C)noc1C)ncc1[nH]c(=O)n([C@H](C)c3ccccn3)c12", 107),
    ("COc1cccc2cc(-c3nc(C4CCC(C(=O)O)CC4)n4ncnc(N)c34)[nH]c12 (configuration not stated)", 111),
]

Given `CN(c1ncccc1CNc1nc(Nc2ccc3c(c2)CC(=O)N3)ncc1C(F)(F)F)[S+](C)(=O)[O-]` , state its recorded cell viability.
111

* * *

Tested on: NOMO1
ASSAY_EXPLANATION: cell viability relative to DMSO control; higher = less cytotoxic
TEST_CONTEXT: RPMI 5 mM glucose + 10% FBS; 48 h; 0.19 µM
MEASUREMENT_NAME: cell viability (%)
Dear colleague, please return just the value in %, with no unit written.

Please review the entries below; each comes with its answer.
# MOLECULE, TESTED_SYSTEM, ENDPOINT_VALUE
data = [
    ("NC[C@H]1CC[C@H](C(=O)O)CC1", "NOMO1", 128),
    ("CNC1CCC(N(Cc2cccc(-c3ccncc3)c2)C(=O)c2sc3ccccc3c2Cl)CC1 (stereo not given)", "NOMO1", 90.6),
    ("CC(=O)O.Cc1c(-c2ccc(O)cc2)n(Cc2ccc(OCCN3CCCCCC3)cc2)c2ccc(O)cc12", "NOMO1", 105),
    ("CN[S+](=O)([O-])Cc1ccc2[nH]cc(CCN(C)C)c2c1", "NOMO1", 120),
]

Consider the additional molecule presented here.
Which cell viability value belongs to CC(C)C(C)/C=C/C(C)C1CCC2C3=CC=C4CC(O)CCC4(C)C3CCC21C (stereo not given) ?
88.6

* * *

Tested on: NOMO1
ASSAY_EXPLANATION: cell viability relative to DMSO control; higher = less cytotoxic
TEST_CONTEXT: RPMI 5 mM glucose + 10% FBS; 48 h; 1.71 µM
// cell viability lookup, one value per entry
Answer with a number only, understood to be in %.

# COMPOUND, UNIT, cell viability
rows = [
    ("CNC1CCC(N(Cc2cccc(-c3ccncc3)c2)C(=O)c2sc3ccccc3c2Cl)CC1 (stereo not given)", "%", 87.7),
    ("NC1(Cc2ccc(Cl)cc2)CCN(c2ncnc3[nH]ccc23)CC1", "%", 90.6),
    ("Cl.Cl.Cl.O[C@@H](COc1cccc2ncccc12)CN1CCN([C@@H]2c3ccccc3[C@@H]3[C@H](c4ccccc42)C3(F)F)CC1", "%", 87.9),
    ("COC[C@H]1OC(=O)C2=COC3=C2[C@@]1(C)\\C4=C(C5CCC(=O)[C@@]5(C)C[C@H]4OC(C)=O)/C3=O (stereo not given in full)", "%", 91.8),
]

// moving on: another record for cell viability
Given the entry `FC(F)(F)c1ccc(/C=C/c2nc(COc3ccc(CCCCn4ccnn4)cc3)co2)cc1` , what cell viability was observed with NOMO1?
92.1

* * *

Known cell viability of a selection of compounds
Tested on: P12-Ichikawa
ASSAY_EXPLANATION: cell viability relative to DMSO control; higher = less cytotoxic
TEST_CONTEXT: RPMI 5 mM glucose + 10% FBS; 48 h; 0.000781 µM
The reply should contain only the number, in %.

# count of solved cases: 4
# COMPOUND, cell viability / %
rows = [
    ("C[C@H](NC(=O)/C(C#N)=C/c1cccc(Br)n1)c1ccccc1", 112),
    ("CC(=O)Nc1ccc(OC[C@](C)(O)C(=O)Nc2ccc([N+](=O)[O-])c(C(F)(F)F)c2)cc1", 63.5),
    ("Cc1ccc(NC(=O)c2ccc(CN3CCN(C)CC3)cc2)cc1Nc1nc(-c2cccnc2)cs1", 105),
    ("CC(=O)N(C)c1cccc(-c2ccnc3c(C(=O)c4cccs4)cnn23)c1", 106),
]

Bench note: what cell viability did `[NH2][Pt]1([NH2])[O]CC(=O)[O]1` show?
98.5

For the compound shown here, `CC(=O)O.Cc1c(-c2ccc(O)cc2)n(Cc2ccc(OCCN3CCCCCC3)cc2)c2ccc(O)cc12` , give the reported cell viability.
92.3

Could you tell me which cell viability is on file for `C[C@](O)(COc1ccc(C#N)cc1)C(=O)Nc1ccc(C#N)c(C(F)(F)F)c1` ?
77.6

# input compound: `Cl.Cl.Cl.O[C@@H](COc1cccc2ncccc12)CN1CCN([C@@H]2c3ccccc3[C@@H]3[C@H](c4ccccc42)C3(F)F)CC1` ; wanted: its cell viability
89.1

What does the data say about its cell viability? Entry: `NC[C@H]1CC[C@H](C(=O)O)CC1`
15

Sample COC[C@H]1OC(=O)C2=COC3=C2[C@@]1(C)\C4=C(C5CCC(=O)[C@@]5(C)C[C@H]4OC(C)=O)/C3=O (some centres not stated) — what was its cell viability?
83.8

Any idea what cell viability was measured for CCC(C)SSc1ncc[nH]1 (configuration not stated) ?
92.8

Recorded cell viability for `COC1=NC(=NC(=C1N\C2=N\CCN2)Cl)C` , please?
84.1

# query: cell viability of entry `CCCc1nc(C(C)(C)O)c(C(=O)O)n1Cc1ccc(-c2ccccc2-c2nn[nH]n2)cc1`
109

For `COc1nccc(-c2c(-c3ccc(F)cc3)ncn2C2CCNCC2)n1` , what is its reported cell viability?
109

* * *

Tested on: P12-Ichikawa
ASSAY_EXPLANATION: cell viability relative to DMSO control; higher = less cytotoxic
TEST_CONTEXT: HPLM + 10% dialyzed FBS; 48 h; 0.00702 µM
The entries below are paired with their reported cell viability.
Respond numerically; units are % and should not be typed.

# example entries with known answers
# COMPOUND, UNIT, cell viability
measured = [
    ("CC1(C)CCC[C@]2(C)[C@H]3CC(=O)O[C@]3(C)CC[C@@H]12", "%", 114),
    ("COc1ccc(C[C@@H](C)[C@@H](C)Cc2ccc(OC)c(OC)c2)cc1OC", "%", 102),
]

// query cell viability value for entry `COC(=O)Nc1nc2cc(C(=O)c3cccs3)ccc2[nH]1`
110

Would you kindly share the measured cell viability for `CC(=O)N(C)c1cccc(-c2ccnc3c(C(=O)c4cccs4)cnn23)c1` ?
109

What value of cell viability has been recorded for this entry: `CN(CC#C)C/C1=C/C2=CC=CC=C2OC3=CC=CC=C13`
92

Could you tell me which cell viability is on file for `C=C(C)[C@@H]1CC[C@]2(C(=O)O)CC[C@]3(C)[C@H](CC[C@@H]4[C@@]5(C)CC[C@H](O)C(C)(C)[C@@H]5CC[C@]43C)[C@@H]12` ?
120

Recorded cell viability for `C\C1=C\C(=O)OC2=C1C=CC(=C2)O` , please?
121

* * *

Tested on: SEM cells
ASSAY_EXPLANATION: cell viability relative to DMSO control; higher = less cytotoxic
TEST_CONTEXT: RPMI 5 mM glucose + 10% dialyzed FBS; 48 h; 1.71 µM
Recorded cell viability values for a group of molecules are listed next.
API: value field is a number in %; no unit string.

Example results:
# MOLECULE, UNIT, cell viability
rows = [
    ("C[C@H](NC(=O)/C(C#N)=C/c1cccc(Br)n1)c1ccccc1", "%", 38.2),
    ("COC1CCC(CC1)N(C(=O)C2CCC(C)CC2)C3=C(SC(=C3)\\C4=C\\CCCC4)C(O)=O (stereo not drawn)", "%", 137),
]

Find the recorded cell viability belonging to `COC1=CC=CC2=C1C(=NC(=N2)C3=CC=CS3)NN4C(=O)\C=C(C)/C4=O` and report it.
41.3

Ref: the supplement of paper PMC11451515
